binders and their reported kon
target: T1, Human CD27 ECD, monomeric soluble (construct limits not stated) (human, UniProt P26842 20-191); assay: Biacore SPR, purified mAb
T1 construct: extracellular domain; target of the Biacore assays; also called monomeric soluble CD27; CD27-His
T1 sequence (P26842 20-191): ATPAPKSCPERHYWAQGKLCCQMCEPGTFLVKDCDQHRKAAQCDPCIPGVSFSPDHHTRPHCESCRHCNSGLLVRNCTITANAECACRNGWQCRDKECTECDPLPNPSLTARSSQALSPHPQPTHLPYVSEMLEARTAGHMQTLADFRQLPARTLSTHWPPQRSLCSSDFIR
Use M⁻¹ s⁻¹ as the unit, but write only the number.

// query Query: kon; subject: M696 (antibody, V domains shown, also called single-gene DNA ID 696) VH: QVQLVESGGGLVKPGGSLRLSCAASGFTFSSYGMSWIRQAPGKGLEWVSYIDEGGGQTIYPDSVKGRFTISRDNAKNSLYLQMNSLRAEDTAVYYCARHRGNPFDYWGQGTLVTVSS VL: DIQMTQSPSSLSASVGDRVTITCRASKSVSHVRWSFMHWYQQKPGKAPKLLIYLASKLESGVPSRFSGSGSGTDFTFTISSLQPEDIATYYCQHSRELPWTFGQGTKVEIK
// result 370000

// query Now the same for M695 (antibody, V domains shown, also called single-gene DNA ID 695) VH: QVQLVESGGGLVKPGGSLRLSCAASGFTFSSYSMSWIRQAPGKGLEWVSYIDAGGGFTIYPDSVKGRFTISRDNAKNSLYLQMNSLRAEDTAVYYCARHRGNPFDYWGQGTLVTVSS VL: DIQMTQSPSSLSASVGDRVTITCRASKSVSEGRWSFMHWYQQKPGKAPKLLIYVASRLESGVPSRFSGSGSGTDFTFTISSLQPEDIATYYCQHSRELPWTFGQGTKVEIK
// result 510000

// query Now the same for M41 (antibody, human IgG1, V domains shown, chimeric; also called C2191 parent; C2191 parent chimera) VH: EVKLVESGGGLVKPGGSLKLSCAASGFTFSSYTMSWVRQTPEKRLEWVAYISSGGGNTYYPDSVKGRFTISRDNARNTLYLQMSSLRSEDTAMYYCSRHRGNPFDYWGQGTTLTVSS VL: DIVLTQSPASLAVSLGQRATISCRASKSVSTSGYSFMHWYQQKPGQPPKLLIYLASNLESGVPARFSGSGSGTDFTLNIHPVEEEDAATYYCQHSRELPWTFGGGTKLEIK
// result 435000
